Molecular target: PaTrmD (tRNA (m^1G37) methyltransferase TrmD, PA14_15990) (Pseudomonas aeruginosa, UniProt Q02RL6)
Sequence (Q02RL6 5-250): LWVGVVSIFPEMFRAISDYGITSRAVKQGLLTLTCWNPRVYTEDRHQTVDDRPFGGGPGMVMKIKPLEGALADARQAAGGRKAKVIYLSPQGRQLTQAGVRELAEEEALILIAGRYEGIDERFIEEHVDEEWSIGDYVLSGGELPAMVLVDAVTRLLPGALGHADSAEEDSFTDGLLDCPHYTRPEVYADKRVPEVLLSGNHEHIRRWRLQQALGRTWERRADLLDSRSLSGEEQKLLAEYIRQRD
Test: crystal structures
OUTCOME_MEASURE: pKi
Kindly note that pKi refers to -log10 of the concentration in mol/L and answer with the value alone.

Request: Suppose we examine the molecule Nc1ncnc2c1ncn2[C@@H]1O[C@H](C[C@@H](N)CC[C@H](N)C(=O)O)[C@@H](O)[C@H]1O [SFG, sinefungin] ; what pKi value has been reported?
Response: 6.39

====

Target: PaTrmD (tRNA (m^1G37) methyltransferase TrmD, PA14_15990) (Pseudomonas aeruginosa, UniProt Q02RL6)
Test: ITC with refolded PaTrmD
OUTCOME_MEASURE: pKd
Kindly note that pKd refers to -log10 of the concentration in mol/L and answer with the value alone.

Request: Suppose we examine the compound C[S+](CC[C@H](N)C(=O)[O-])C[C@H]1O[C@@H](n2cnc3c(N)ncnc32)[C@H](O)[C@@H]1O (stereo partly shown) ; what pKd value has been reported?
Response: 4.84
